- test system: G12D-mutant human KRAS (amino acid residues 1-188) (Homo sapiens, UniProt P01116, G12D)
- Construct: G12D or G12C-mutant human KRAS (amino acid residues 1-188) with FLAG tag; made in house; host or cells: E. coli
- Sequence (P01116 1-188 isoform P01116-2 G12D): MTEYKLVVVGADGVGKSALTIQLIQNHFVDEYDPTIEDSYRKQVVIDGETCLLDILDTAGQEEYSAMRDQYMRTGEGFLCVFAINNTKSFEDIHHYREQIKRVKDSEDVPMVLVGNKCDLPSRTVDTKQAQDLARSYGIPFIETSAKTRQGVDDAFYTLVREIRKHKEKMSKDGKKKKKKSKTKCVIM
- protocol: KRAS Binding Disruption Assay (AlphaScreen; biotinylated KRpep-2d analogue or RAF1-RBD), G12D
- test settings: KRAS G12D; geometric mean; read-out: KRAS GMean IC50 (uM) MUTATION: G12D
Below: a set of entries, each annotated with reported IC50.
property name: IC50

• CN1CCC[C@H]1COc1nc(N2[C@@H]3CC[C@H]2CNC3)c2ccc(-c3cncc(Br)c3Cl)cc2n1 = 10 to 100 µM
• Oc1cc(-c2ccc3c(N4C[C@H]5CC[C@@H](C4)N5Cc4ccccn4)nc(OCC45CCCN4CCC5)nc3c2)c2ccccc2c1 = 0.0001 to 10 µM
• CN1CCC[C@H]1COc1nc(N2[C@@H]3CC[C@H]2CN(C(=O)CCC2CNCCN2)C3)c2ccc(-c3cc(O)cc4ccccc34)cc2n1 (stereo partly drawn) = 10 to 100 µM
• CN1CCN(CCNC(=O)N2C[C@H]3CC[C@@H](C2)N3c2nc(OC[C@@H]3CCCN3C)nc3cc(-c4cc(O)cc5ccccc45)ccc23)CC1 = 10 to 100 µM
• CN1CCC[C@H]1COc1nc(N2CC3CCC2CN3)c2ccc(-c3cc(O)cc4ccccc34)cc2n1 (stereo partly drawn) = 0.0001 to 10 µM
• Cc1cccc2cc(O)cc(-c3ccc4c(N5C[C@H]6CC[C@@H](C5)N6)nc(OC[C@@H]5CCCN5C)nc4c3F)c12 = 0.0001 to 10 µM
• CN(C)C1CN(c2nc(N3C[C@H]4CC[C@@H](C3)N4)c3ccc(-c4cc(O)cc5ccccc45)c(F)c3n2)C1 = 0.0001 to 10 µM
• CN1CCC[C@H]1COc1nc(N2[C@@H]3CC[C@H]2CNC3)c2ccc(-c3c(F)ccc(N)c3F)cc2n1 = 10 to 100 µM
• CN1CCC[C@H]1COc1nc(N2C[C@H]3CC[C@@H](C2)N3)c2cc(F)c(-c3n[nH]c4ccc(F)cc34)c(F)c2n1 = 10 to 100 µM
• NC1(CCO)CN(c2nc(N3C[C@H]4CC[C@@H](C3)N4)c3ccc(-c4cc(O)cc5ccccc45)c(F)c3n2)C1 = 0.0001 to 10 µM
• COc1cccc(F)c1-c1c(Cl)cc2c(N3C[C@H]4CC[C@@H](C3)N4)nc(Oc3cccc4c3CN(C)CC4)nc2c1F = 10 to 100 µM
• CNCC1CN(c2nc(N3C[C@H]4CC[C@@H](C3)N4)c3ccc(-c4cc(O)cc5ccccc45)c(F)c3n2)C1 = 0.0001 to 10 µM
• CN1CCC[C@H]1COc1nc(N2[C@@H]3CC[C@H]2CN(C(=O)CS(N)(=O)=O)C3)c2ccc(-c3cc(O)cc4ccccc34)cc2n1 = 10 to 100 µM
• N#CCCc1cccc2[nH]cc(-c3ccc4c(N5C[C@H]6CC[C@@H](C5)N6)nc(OCC56CCCN5CCC6)nc4c3F)c12 = 0.0001 to 10 µM
• OCC1CCN(c2nc(N3C[C@H]4CC[C@@H](C3)N4)c3ccc(-c4cc(O)cc5ccccc45)c(F)c3n2)C1 (stereo partly drawn) = 0.0001 to 10 µM
• Oc1cc(-c2ccc3c(N4C[C@H]5CC[C@@H](C4)N5)nc(OCC4CCCC4)nc3c2F)c2ccccc2c1 = 0.0001 to 10 µM
• O=C(C1C2CCC1CNC2)N1[C@@H]2CC[C@H]1CN(c1nc(OCC34CCCN3CCC4)nc3c(F)c(-c4cc(O)cc5ccccc45)ccc13)C2 (stereo partly drawn) = 0.0001 to 10 µM
• CN1CCC[C@H]1COc1nc(N2C[C@H]3CC[C@@H](C2)N3)c2ccc(-c3c(Cl)ccc4[nH]ccc34)cc2n1 = 10 to 100 µM
• CN1CCC[C@H]1COc1nc(N2[C@@H]3CC[C@H]2CN(CC(=O)N2CC(O)C2)C3)c2ccc(-c3cc(O)cc4ccccc34)cc2n1 = 10 to 100 µM
• Oc1cc(-c2ccc3c(N4C[C@H]5CC[C@@H](C4)N5)nc(N4CC(O)(C5CC5)C4)nc3c2F)c2ccccc2c1 = 0.0001 to 10 µM
• Oc1cc(-c2ccc3c(N4C[C@H]5CC[C@@H](C4)N5)nc(CNC4CC4)nc3c2)c2ccccc2c1 = 0.0001 to 10 µM
• Oc1cc(-c2ccc3c(N4[C@@H]5CC[C@H]4CNC5)nc(Cc4cccnc4)nc3c2)c2ccccc2c1 = 0.0001 to 10 µM
• CC(C)(CO)COc1nc(N2C[C@H]3CC[C@@H](C2)N3)c2ccc(-c3cc(O)cc4ccccc34)c(F)c2n1 = 0.0001 to 10 µM
• CN1CCC[C@H]1COc1nc(N2[C@@H]3CC[C@H]2CN(C(=O)CC(=O)O)C3)c2ccc(-c3cc(O)cc4ccccc34)cc2n1 = 100 to 1000 µM
• Cc1ccc2[nH]cc(-c3ccc4c(N5C[C@H]6CC[C@@H](C5)N6)nc(OCC56CCCN5CCC6)nc4c3F)c2c1F = 0.0001 to 10 µM
• Oc1cc(-c2ccc3c(N4C[C@H]5CC[C@@H](C4)N5)nc(N4CC5(CCCNC5)C4)nc3c2F)c2ccccc2c1 = 0.0001 to 10 µM
• Oc1cc(-c2ccc3c(N4C[C@H]5CC[C@@H](C4)N5)nc(OCC4CC(F)(F)C4)nc3c2F)c2ccccc2c1 = 0.0001 to 10 µM

* * *

- test system: G12D-mutant human KRAS (amino acid residues 1-188) (Homo sapiens, UniProt P01116, G12D)
- Construct: G12D or G12C-mutant human KRAS (amino acid residues 1-188) with FLAG tag; made in house; host or cells: E. coli
- protocol: KRAS Binding Disruption Assay (AlphaScreen; biotinylated KRpep-2d analogue or RAF1-RBD), G12D
- test settings: KRAS G12D; geometric mean; read-out: KRAS GMean IC50 (uM) MUTATION: G12D
Documented IC50 across a set of compounds
property name: IC50

- CN1CCN(CCNC(=O)N2[C@@H]3CC[C@H]2CN(c2nc(OCC4CCCN4C)nc4c(F)c(-c5cc(O)cc6ccccc56)ccc24)C3)CC1 (stereo partly shown) [P-0416]: 10 to 100 µM
- CN1CCC[C@H]1COc1nc(N2C[C@H]3CC[C@@H](C2)N3)c2ccc(-c3c(F)ccc4[nH]ccc34)cc2n1 [P-0184]: 10 to 100 µM
- Oc1cc(-c2c(F)cc3c(N4C[C@H]5CC[C@@H](C4)N5)nc(OCC45CCCN4CCC5)nc3c2F)c2ccccc2c1 [P-0010]: 0.0001 to 10 µM
- O=C1CC(COc2nc(N3C[C@H]4CC[C@@H](C3)N4)c3ccc(-c4cc(O)cc5ccccc45)c(F)c3n2)CN1 (stereo partly shown) [P-0766]: 0.0001 to 10 µM
- CN1CCC[C@H]1COc1nc(N2CC3COCC(C2)N3)c2ccc(-c3cc(O)cc4ccccc34)c(F)c2n1 [P-0249]: 0.0001 to 10 µM
- CN1CCC[C@H]1COc1nc(N2[C@@H]3CC[C@H]2CN(CC(=O)C2CCNCC2)C3)c2ccc(-c3cc(O)cc4ccccc34)cc2n1 [P-0345]: 0.0001 to 10 µM
- CN1CCC[C@H]1COc1nc(N2C[C@H]3CC[C@@H](C2)N3C(=O)[C@@H]2C[C@@H](O)CN2)c2ccc(-c3cc(O)cc4ccccc34)c(F)c2n1 [P-0425]: 0.0001 to 10 µM

* * *

- test system: G12C-mutant human KRAS (amino acid residues 1-188) (Homo sapiens, UniProt P01116, G12C)
- Construct: G12D or G12C-mutant human KRAS (amino acid residues 1-188) with FLAG tag; made in house; host or cells: E. coli
- Sequence (P01116 1-188 isoform P01116-2 G12C): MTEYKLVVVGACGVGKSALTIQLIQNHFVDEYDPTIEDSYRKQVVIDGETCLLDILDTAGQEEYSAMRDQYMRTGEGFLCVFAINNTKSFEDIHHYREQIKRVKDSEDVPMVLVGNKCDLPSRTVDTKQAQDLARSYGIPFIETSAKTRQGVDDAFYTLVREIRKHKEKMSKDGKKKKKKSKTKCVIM
- protocol: KRAS Binding Disruption Assay (AlphaScreen; biotinylated KRpep-2d analogue or RAF1-RBD), G12C
- test settings: geometric mean, read-out: KRAS GMean IC50 (uM) MUTATION: G12C
property name: IC50

• CN1CCC[C@H]1COc1nc(N2C[C@H]3CC[C@@H](C2)N3)c2ccc(-c3cc(O)cc4ccccc34)cc2n1 = 0.0001 to 10 µM
• O=C(N[C@@H]1CCNC1)N1[C@@H]2CC[C@H]1CN(c1nc(OCC34CCCN3CCC4)nc3cc(-c4cc(O)cc5ccccc45)ccc13)C2 = 0.0001 to 10 µM
• Oc1cc(-c2ccc3c(N4C[C@H]5CC[C@@H](C4)N5)nc(OCC4(O)CCCC4)nc3c2F)c2ccccc2c1 = 10 to 100 µM
• O=C(O)COc1nc(N2C[C@H]3CC[C@@H](C2)N3)c2ccc(-c3cc(O)cc4ccccc34)c(F)c2n1 = 10 to 100 µM
• O=C(Cn1ccnc1)N1[C@@H]2CC[C@H]1CN(c1nc(OCC34CCCN3CCC4)nc3c(F)c(-c4cc(O)cc5ccccc45)ccc13)C2 = 0.0001 to 10 µM
• O=C(CC1CCNC1)N1[C@@H]2CC[C@H]1CN(c1nc(OCC34CCCN3CCC4)nc3cc(-c4cc(O)cc5ccccc45)ccc13)C2 (stereo partly drawn) = 0.0001 to 10 µM
• CCN(CC)C1CN(c2nc(N3C[C@H]4CC[C@@H](C3)N4)c3ccc(-c4cc(O)cc5ccccc45)c(F)c3n2)C1 = 10 to 100 µM
• Fc1ccc2[nH]cc(-c3c(Cl)cc4c(N5C[C@H]6CC[C@@H](C5)N6)nc(OCC56CCCN5CCC6)nc4c3F)c2c1F = 0.0001 to 10 µM
• Oc1cc(-c2ccc3c(N4C[C@H]5CC[C@@H](C4)N5)nc(OCC4CCC(F)(F)CC4)nc3c2F)c2ccccc2c1 = 10 to 100 µM
• Cc1cccc2cc(O)cc(-c3ccc4c(N5C[C@H]6CC[C@@H](C5)N6)nc(OCC56CCCN5CCC6)nc4c3F)c12 = 0.0001 to 10 µM
• Fc1cc(F)c2[nH]cc(-c3c(F)cc4c(N5C[C@H]6CC[C@@H](C5)N6)nc(OCC56CCCN5CCC6)nc4c3F)c2c1 = 10 to 100 µM
• O=C1CC(COc2nc(N3C[C@H]4CC[C@@H](C3)N4)c3ccc(-c4cc(O)cc5ccccc45)c(F)c3n2)CN1 (stereo partly drawn) = 10 to 100 µM
• CN1CCC[C@H]1COc1nc(N2C[C@H]3CC[C@@H](C2)N3)c2ccc(-c3cccc4cccc(Cl)c34)c(F)c2n1 = 10 to 100 µM
• CN1CCC[C@H]1COc1nc(N2C[C@H]3CC[C@@H](C2)N3)c2ccc(-c3nccc4cccc(C(F)(F)F)c34)c(F)c2n1 = 10 to 100 µM
• Cc1ccc2[nH]cc(-c3ccc4c(N5C[C@H]6CC[C@@H](C5)N6)nc(OCC56CCCN5CCC6)nc4c3F)c2c1F = 0.0001 to 10 µM
• Fc1c(-c2c[nH]c3cccc(C4CC4)c23)ccc2c(N3C[C@H]4CC[C@@H](C3)N4)nc(OCC34CCCN3CCC4)nc12 = 0.0001 to 10 µM
• O=C(c1n[nH]c(=O)[nH]1)N1[C@@H]2CC[C@H]1CN(c1nc(OCC34CCCN3CCC4)nc3cc(-c4cc(O)cc5ccccc45)ccc13)C2 = 0.0001 to 10 µM
• CN1CCC[C@H]1COc1nc(N2C[C@H]3CC[C@@H](C2)N3)c2cc(C#N)c(-c3cc(O)cc4ccccc34)c(F)c2n1 = 0.0001 to 10 µM
• Oc1cc(-c2ccc3c(N4C[C@H]5CC[C@@H](C4)N5)nc(OCC4CCC(F)(F)C4)nc3c2F)c2ccccc2c1 (stereo partly drawn) = 10 to 100 µM
• O=C1CCC(=O)N1CCOc1nc(N2C[C@H]3CC[C@@H](C2)N3)c2ccc(-c3cc(O)cc4ccccc34)c(F)c2n1 = 10 to 100 µM
• CN1CCC[C@H]1COc1nc(N2C[C@H]3CC[C@@H](C2)N3)c2cc(Cl)c(-c3cc(O)cc4ccccc34)c(F)c2n1 = 0.0001 to 10 µM
• O=C(CCO)Nc1nc(N2C[C@H]3CC[C@@H](C2)N3)c2ccc(-c3cc(O)cc4ccccc34)c(F)c2n1 = 100 to 1000 µM
• Oc1cc(-c2ccc3c(N4C[C@H]5CC[C@@H](C4)N5)nc(OCC4(O)CC4)nc3c2F)c2ccccc2c1 = 10 to 100 µM
• CN(C)CCOc1nc(N2C[C@H]3CC[C@@H](C2)N3)c2ccc(-c3cc(O)cc4ccccc34)cc2n1 = 10 to 100 µM
• Fc1ccc2[nH]cc(-c3ccc4c(N5C[C@H]6CC[C@@H](C5)N6)nc(OCC56CCCN5CCC6)nc4c3F)c2c1F = 0.0001 to 10 µM
• Oc1cc(-c2ccc3c(N4CC5CCC(C4)N5)nc(OCC4CCCC4O)nc3c2F)c2ccccc2c1 (stereo not drawn) = 10 to 100 µM
• CN1CCC[C@H]1COc1nc(N2C[C@H]3CC[C@@H](C2)N3)c2cc(Cl)c(-c3c(O)cccc3F)c(F)c2n1 = 10 to 100 µM

Cited source for all entries: patent US20230081426A1
